Assay: Bleaching of coffee-tea stained bovine enamel with EZ-1 and various ester substrates (Example 15)
Parameters: scale not given here
Settings: after 1 x 30 min treatment
The following compounds are shown together with reported Whiteness Index Treatment 1 values.
# output: bare number, no unit

Completed entries (count: 4):
>  <Compound>
CC(=O)OCC(COC(C)=O)OC(C)=O

>  <Whiteness Index Treatment 1>
−108.7

$$$$
>  <Compound>
CC(=O)OC[C@H]1O[C@H](OC(C)=O)[C@H](OC(C)=O)[C@@H](OC(C)=O)[C@@H]1OC(C)=O [α-D-glucose pentaacetate]

>  <Whiteness Index Treatment 1>
−128.7

$$$$
>  <Compound>
OO [Enzyme H2O2, hydrogen peroxide]

>  <Whiteness Index Treatment 1>
−129.6

$$$$
>  <Compound>
CC(=O)OC[C@H]1O[C@@](COC(C)=O)(O[C@H]2O[C@H](COC(C)=O)[C@@H](OC(C)=O)[C@H](OC(C)=O)[C@H]2OC(C)=O)[C@@H](OC(C)=O)[C@@H]1OC(C)=O [Sucrose octaacetate]

>  <Whiteness Index Treatment 1>
−135.2

$$$$

Next up:
GET /values?readout=Whiteness Index Treatment 1&item= CC(=O)OCC(C)OC(C)=O (centres unmarked) [Propylene glycol diacetate]
−108.0
